- study system: T1, human CD131 (human, UniProt P32927 17-897)
- T1 sequence: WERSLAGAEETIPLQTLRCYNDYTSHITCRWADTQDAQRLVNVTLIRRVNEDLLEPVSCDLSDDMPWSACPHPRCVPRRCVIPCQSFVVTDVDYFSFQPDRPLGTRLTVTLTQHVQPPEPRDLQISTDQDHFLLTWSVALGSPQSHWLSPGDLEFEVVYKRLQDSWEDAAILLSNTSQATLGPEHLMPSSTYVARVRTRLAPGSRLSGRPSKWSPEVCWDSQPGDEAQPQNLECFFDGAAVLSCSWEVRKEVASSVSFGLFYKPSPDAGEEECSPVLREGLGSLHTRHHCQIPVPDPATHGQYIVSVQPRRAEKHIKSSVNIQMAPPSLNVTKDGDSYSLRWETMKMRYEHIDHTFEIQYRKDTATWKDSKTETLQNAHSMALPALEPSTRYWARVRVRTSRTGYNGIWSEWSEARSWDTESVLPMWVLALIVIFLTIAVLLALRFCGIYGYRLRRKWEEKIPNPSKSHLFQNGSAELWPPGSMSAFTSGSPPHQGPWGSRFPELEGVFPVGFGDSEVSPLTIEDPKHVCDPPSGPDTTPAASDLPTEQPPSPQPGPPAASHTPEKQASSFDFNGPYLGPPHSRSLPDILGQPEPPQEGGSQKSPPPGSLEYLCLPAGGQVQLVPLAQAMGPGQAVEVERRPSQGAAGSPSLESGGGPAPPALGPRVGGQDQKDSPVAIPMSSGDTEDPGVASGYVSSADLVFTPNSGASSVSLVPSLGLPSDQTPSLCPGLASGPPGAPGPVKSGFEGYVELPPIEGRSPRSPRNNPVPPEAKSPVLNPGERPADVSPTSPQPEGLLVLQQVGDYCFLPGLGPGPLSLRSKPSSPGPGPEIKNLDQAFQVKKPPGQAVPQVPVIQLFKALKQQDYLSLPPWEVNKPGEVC
- assay overview: cell-based or functional assay
// classify: if (IC50 GM-CSF, TF-1 proliferation < 0.4 nM) yes (1) else no (0)

Ask: IC50 GM-CSF, TF-1 proliferation under 0.4 nM? Item: 9A2-VR24.97 (antibody, V domains shown) VH: EVQLLESGGGLVQPGGSLRLSCAASGFTFPWYRVHWVRQAPGKGLEWVSSIRSSGGFPYYSLSVKGRFTISRDNSKNTLYLQMNSLRAEDTAVYYCARFYDSFFDIWGQGTMVTVSS VL: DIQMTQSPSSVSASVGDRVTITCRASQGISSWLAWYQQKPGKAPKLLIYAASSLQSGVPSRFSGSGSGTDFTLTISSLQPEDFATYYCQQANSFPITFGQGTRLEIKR
Result: yes (1)

Ask: Please state whether IC50 GM-CSF, TF-1 proliferation is below 0.4 nM for 9A2-VR39.162 (antibody, V domains shown) VH: EVQLLESGGGLVQPGGSLRLSCAASGFTFSHYHMLWVRQAPGKGLEWVSSINGRGRVPQMAQEVKGRFTISRDNSKNTLYLQMNSLRAEDTAVYYCARFYDSFFDIWGQGTMVTVSS VL: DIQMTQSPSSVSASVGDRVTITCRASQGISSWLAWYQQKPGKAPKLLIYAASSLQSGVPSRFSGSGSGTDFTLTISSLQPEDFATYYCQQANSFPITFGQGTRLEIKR
Result: no (0)

Ask: is_below(IC50 GM-CSF, TF-1 proliferation, 0.4 nM) for 9A2-VR39.05 (antibody, V domains shown) VH: EVQLLESGGGLVQPGGSLRLSCAASGFTFPWFHTVWVRQAPGKGLEWVSSINGRGRVTYYADSVKGRFTISRDNSKNTLYLQMNSLRAEDTAVYYCARFYDSFFDIWGQGTMVTVSS VL: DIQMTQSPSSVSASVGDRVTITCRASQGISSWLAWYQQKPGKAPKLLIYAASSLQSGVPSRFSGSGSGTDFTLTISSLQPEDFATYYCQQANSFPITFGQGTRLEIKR ?
Result: no (0)

Ask: I wonder whether 9A2-VR39.97 (antibody, V domains shown) VH: EVQLLESGGGLVQPGGSLRLSCAASGFTFPWFHFVWVRQAPGKGLEWVSSINGRGRVTYYADSVKGRFTISRDNSKNTLYLQMNSLRAEDTAVYYCARFYDSFFDIWGQGTMVTVSS VL: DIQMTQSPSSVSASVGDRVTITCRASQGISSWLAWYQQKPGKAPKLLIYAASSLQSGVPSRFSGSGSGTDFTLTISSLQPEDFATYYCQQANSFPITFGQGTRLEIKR has IC50 GM-CSF, TF-1 proliferation below 0.4 nM. Can you tell?
Result: no (0)

Source: patent US20190062438A1
